Source listed as patent US9708306B2.

- Test system: renovascular hypertensive rats
- measurement.notes: Effect on reducing blood pressure of renovascular hypertensive rats by single oral administration
- Type: in vivo, Wistar rats
- settings: Rattus norvegicus; 1.0 mg/kg, single oral administration, RHR; read-out: Variations on heart rate
Each item that follows carries a reported change in vivo at 1 mg/kg.
Your answer should be a plain number; it is taken to be in %.

[[record]]
compound = "CCOc1nc2cccc(C(=O)OC(C)OC(=O)OCc3no[n+]([O-])c3C)c2n1Cc1ccc(-c2ccccc2-c2noc(=O)[nH]2)cc1 (stereo not drawn)"
target_of_assay = "renovascular hypertensive rats"
assay_readout = "change in vivo at 1 mg/kg"
number = -3

[[record]]
compound = "CCOc1nc2cccc(C(=O)OC3COC4C(O[N+](=O)[O-])COC34)c2n1Cc1ccc(-c2ccccc2-c2noc(=O)[nH]2)cc1 (stereo not drawn)"
target_of_assay = "renovascular hypertensive rats"
assay_readout = "change in vivo at 1 mg/kg"
number = -8

[[record]]
compound = "CCOc1nc2cccc(C(=O)OCc3nc(C)c(C)nc3C)c2n1Cc1ccc(-c2ccccc2-c2noc(=O)[nH]2)cc1"
target_of_assay = "renovascular hypertensive rats"
assay_readout = "change in vivo at 1 mg/kg"
number = -5

[[record]]
compound = "CCOc1nc2cccc(C(=O)OC(C)OC(=O)OCc3nc(C)c(C)nc3C)c2n1Cc1ccc(-c2ccccc2-c2noc(=O)[nH]2)cc1 (stereo not drawn)"
target_of_assay = "renovascular hypertensive rats"
assay_readout = "change in vivo at 1 mg/kg"
number = 25


# input compound: CCOc1nc2cccc(C(=O)OCOC(=O)OCc3cn(C)cn3)c2n1Cc1ccc(-c2ccccc2-c2noc(=O)[nH]2)cc1 ; wanted: its change in vivo at 1 mg/kg
-18

Likewise for CCOc1nc2cccc(C(=O)Oc3ccc(OCc4c(-c5ccccc5)no[n+]4[O-])cc3)c2n1Cc1ccc(-c2ccccc2-c2noc(=O)[nH]2)cc1 ?
-3

Please answer likewise for CCOc1nc2cccc(C(=O)OC(C)OC(=O)OC(C)C)c2n1Cc1ccc(-c2ccccc2-c2noc(=O)[nH]2)cc1 (stereo not drawn)
-3

Please answer likewise for CCOc1nc2cccc(C(=O)OCOC(=O)OCc3no[n+]([O-])c3C)c2n1Cc1ccc(-c2ccccc2-c2noc(=O)[nH]2)cc1
-28

Queued: CCOc1nc2cccc(C(=O)OCOC(=O)OC(C)C)c2n1Cc1ccc(-c2ccccc2-c2noc(=O)[nH]2)cc1
-8

What about CCOc1nc2cccc(C(=O)OCCCCO[N+](=O)[O-])c2n1Cc1ccc(-c2ccccc2-c2noc(=O)[nH]2)cc1 ?
-15

Entry CCOC(=O)C(=O)OC(C)C(=O)COC(=O)c1cccc2nc(OCC)n(Cc3ccc(-c4ccccc4-c4noc(=O)[nH]4)cc3)c12 (stereo not drawn) please
2

Now the compound CCOc1nc2cccc(C(=O)OCc3oc(=S)oc3C)c2n1Cc1ccc(-c2ccccc2-c2noc(=O)[nH]2)cc1
-8

---

- Test system: normal rats
- measurement.notes: Effect on blood pressure of normal rats by single oral administration
- Type: in vivo, Wistar rats
- settings: Rattus norvegicus, po, 8 h; 2.0 mg/kg p.o., single, normal rats; read-out: blood pressure reduction at 8 h after the administration
assay.readout: inhibition in vivo at 2 mg/kg (%)
Report the figure in % without appending any unit label.

Solved cases (3 shown):
[[record]]
molecule = "CCOc1nc2cccc(C(=O)OCCCCOc3no[n+]([O-])c3S(=O)(=O)c3ccccc3)c2n1Cc1ccc(-c2ccccc2-c2noc(=O)[nH]2)cc1 [QR01011]"
assay_readout = "inhibition in vivo at 2 mg/kg"
units_text = "%"
number = 3.7

[[record]]
molecule = "CCOc1nc2cccc(C(=O)OCCCCO[N+](=O)[O-])c2n1Cc1ccc(-c2ccccc2-c2noc(=O)[nH]2)cc1 [QR01008]"
assay_readout = "inhibition in vivo at 2 mg/kg"
units_text = "%"
number = 2.1

[[record]]
molecule = "CCOc1nc2cccc(C(=O)OCc3no[n+]([O-])c3CO[N+](=O)[O-])c2n1Cc1ccc(-c2ccccc2-c2noc(=O)[nH]2)cc1 [QR01034]"
assay_readout = "inhibition in vivo at 2 mg/kg"
units_text = "%"
number = 3.4


Please look up its inhibition in vivo at 2 mg/kg: CCOc1nc2cccc(C(=O)OCCOC(C)=O)c2n1Cc1ccc(-c2ccccc2-c2noc(=O)[nH]2)cc1 [QR01004]
5.7

Here is the next molecule: CCOc1nc2cccc(C(=O)OCc3c(C)no[n+]3[O-])c2n1Cc1ccc(-c2ccccc2-c2noc(=O)[nH]2)cc1 [QR01025]
3.7

Consider next the molecule CCOc1nc2cccc(C(=O)Oc3ccc(OCc4c(-c5ccccc5)no[n+]4[O-])cc3)c2n1Cc1ccc(-c2ccccc2-c2noc(=O)[nH]2)cc1 [QR01010] in the same way.
5.7

Param item: CCOc1nc2cccc(C(=O)OCOC(=O)OCc3cn(C)cn3)c2n1Cc1ccc(-c2ccccc2-c2noc(=O)[nH]2)cc1 [QR01031]
4.7

How about this molecule: CCOC(=O)C(=O)OC(C)C(=O)COC(=O)c1cccc2nc(OCC)n(Cc3ccc(-c4ccccc4-c4noc(=O)[nH]4)cc3)c12 (stereo not drawn) [QR01015]
1.8

Also, CCOc1nc2cccc(C(=O)OCc3no[n+]([O-])c3C(C)(C)C)c2n1Cc1ccc(-c2ccccc2-c2noc(=O)[nH]2)cc1 [QR01026] please.
3.8
